Cited source for all entries: PubChem BioAssay (NCATS)

PROTOCOL DESCRIPTION: Quantitative High-Throughput drug screen in 47 multiple myeloma cell lines against the NCATS MIPE library collection: MM1R_ATCC cell viability assay (AID 1918981); note: nearly all actives have a fitted effect of over 35% in size
PROTOCOL CONDITIONS: MM1R multiple myeloma cells, CellTiter-Glo viability, 48 h; series mostly up to 45.8 µM
Excerpt: PI: Beverly A. Mock Ph.D. Laboratory of Cancer Biology and Genetics, Center for Cancer Research, National Cancer Institute, National Institute of Health, Bethesda, Maryland […] 5; Detector; 425V; Luminescence; Viewlux PerkinElmer. […] 1. […] Briefly, the corresponding myeloma cell lines were screened in 1,536-well plates with 500 cells, 5-uL per well for inhibition of cell viability (assessed by measuring ATP levels with CellTiterGlo). […]
Results filed as inconclusive are left out. Calls of active or inactive are those of the source. Calls come from the whole dose curve; as a rule, active = well fitted cell-killing curve with a large enough effect; inconclusive = small, poorly fitted or top-dose-only effect, or effect the other way; inactive = no such curve, though single readings can be large or run the other way.
Classes used: YES (active), NO (inactive)

# STRUCTURE SMILES, QUALITATIVE LABEL
records = [
    ("c1ccc(CNc2nc(N3CCOc4ccccc43)nc3c2CCCC3)cc1", "NO"),
    ("CC(=O)NCCC(=O)N[C@@H](CCC(N)=O)C(=O)N[C@@H](CO)C(=O)N[C@@H](CCC(N)=O)C(=O)N[C@@H](CCC(N)=O)C(=O)N[C@H](C(=O)N[C@@H](Cc1ccccc1)C(=O)N[C@]1(C)CCCCCCC=CCCC[C@@](C)(C(=O)N[C@@H](CCC(N)=O)C(=O)N[C@@H](CC(N)=O)C(N)=O)NC(=O)[C@H](CC(C)C)NC(=O)[C@H](CC(C)C)NC(=O)[C@@H](CCCNC(=N)N)NC(=O)[C@H](Cc2c[nH]c3ccccc23)NC(=O)[C@H](CC(C)C)NC(=O)[C@H](CC(N)=O)NC1=O)[C@H](C)O", "YES"),
    ("Clc1ccc(C2(c3ccc(-c4cn[nH]c4)cc3)CCNCC2)cc1", "YES"),
    ("c1cc(OCCN2CCCCC2)cc(-c2n[nH]c3ccc(-c4ncn[nH]4)cc23)c1", "YES"),
]

----------
PROTOCOL DESCRIPTION: Quantitative High-Throughput drug screen in 47 multiple myeloma cell lines against the NCATS MIPE library collection: NCIH929_DSMZ cell viability assay (AID 1918978); note: nearly all actives have a fitted effect of over 35% in size
PROTOCOL CONDITIONS: NCI-H929 myeloma viability, CellTiter-Glo ATP, 48 h; series mostly up to 45.8 µM
Results filed as inconclusive are left out. The source made the active and inactive calls. The call rests on the fitted dose curve; in most records, active means well fitted cell-killing curve with a large enough effect; inconclusive means small, poorly fitted or top-dose-only effect; inactive means no such curve, though single readings can be large or run the other way.
Classes used: active, inactive

# COMPOUND, QUALITATIVE LABEL
records = [
    ("CC1CCN(c2cc(N3CCN(C)CC3)ccc2NC(=O)c2cc(C#N)c[nH]2)CC1", "inactive"),
    ("CCCCC[C@H](O)C=C[C@H]1[C@H](O)CC(=O)[C@H]1CC=CCCCC(=O)O", "active"),
    ("C[C@@H]1O[C@@H](O[C@H]2CC[C@@]3(C)[C@H](CC[C@@H]4[C@H]3C[C@@H](O)[C@]3(C)[C@@H](C5=CC(=O)OC5)CC[C@]43O)C2)C[C@H](O)[C@@H]1O[C@H]1C[C@H](O)[C@H](O[C@H]2C[C@H](O)[C@@H](O)[C@@H](C)O2)[C@H](C)O1 (stereo in doubt)", "active"),
    ("CC1C(=O)OC2C(O)C34C5CC(C(C)(C)C)C36C(OC(=O)C6O)OC4(C(=O)O5)C12O (stereo not given)", "inactive"),
    ("Cc1ccc(C2=Nc3ccc(Cl)cc3OC2)cc1", "inactive"),
    ("Clc1ccc(COC(Cn2ccnc2)c2ccc(Cl)cc2Cl)c(Cl)c1 (stereo not given)", "active"),
    ("COc1cc(CNC(=O)CCCCC=CC(C)C)ccc1O", "active"),
    ("C=C[C@@H]1CN2CCC1C[C@@H]2C(O)c1ccnc2ccc(OC)cc12 (stereo not given in full)", "inactive"),
    ("COc1ccc2nc3cc(Cl)ccc3c(Nc3cc(CN4CCCC4)c(O)c(CN4CCCC4)c3)c2n1", "active"),
    ("FC(F)(F)c1ccc(C=Cc2nc(COc3ccc(CCCCn4ccnn4)cc3)co2)cc1", "active"),
    ("O=C(C=Cc1ccc(O)cc1)c1ccc(O)cc1O", "active"),
    ("Cc1cc(-c2ncc(CC(=O)Nc3ccc(-c4cnccn4)cn3)cc2C)ccn1", "active"),
    ("CCCC1OC2C[C@@H]3[C@H]4CCC5=CC(=O)C=C[C@]5(C)[C@H]4C(O)C[C@]3(C)[C@]2(C(=O)CO)O1 (stereo not given in full)", "active"),
    ("Cc1ccc2c(c1)C(=O)[C@]1(O)CCN(c3ccccc3)C1=N2", "inactive"),
    ("NC(=O)c1noc([C@H](CCCC2CCCCC2)CC(=O)NO)n1", "active"),
    ("O=C(Nc1cccc(Cl)c1)Nc1ncc(CCNc2ncnc3ccsc23)s1", "active"),
    ("O=C(O)C1=NC(C(=O)O)CC(C=CN2c3cc(O)c(OC4OC(CO)C(O)C(O)C4O)cc3CC2C(=O)O)=C1 (stereo not given)", "inactive"),
    ("COc1cc2nccc(Oc3ccc(NC(=O)Nc4ccc(F)cc4F)c(F)c3)c2cc1OC", "inactive"),
    ("CCNC(=O)c1noc(-c2cc(C(C)C)c(O)cc2O)c1-c1ccc(CN2CCOCC2)cc1", "active"),
    ("CCOC(=O)N1CCN([N+]([O-])=NOc2cc(ON=[N+]([O-])N3CCN(C(=O)OCC)CC3)c([N+](=O)[O-])cc2[N+](=O)[O-])CC1", "active"),
    ("CN1CCN(c2cccc(Nc3nc4c(-c5ccc(S(C)(=O)=O)cc5)cccn4n3)c2)CC1", "active"),
    ("COc1cc(N2CCN(C)CC2)ccc1Nc1nc(N)c(C(=O)c2c(Cl)cccc2Cl)s1", "inactive"),
    ("C[C@@]1(C(=O)Nc2ccc(F)nc2)CCCN1c1nc(Nc2cc(C3CC3)[nH]n2)c2cccn2n1", "active"),
    ("COc1cc2c(cc1Cc1cccc(Cl)c1F)c(=O)c(C(=O)O)cn2[C@H](CO)C(C)C", "active"),
    ("COc1cc(Nc2nc3ccccc3nc2NS(=O)(=O)c2ccc(NC(=O)c3ccc(C)c(OC)c3)cc2)cc(OC)c1", "active"),
    ("C[C@]12CCC3=C4CCC(=O)C=C4CC[C@@H]3[C@H]1CC[C@@]2(O)CC#N", "inactive"),
    ("CCNC(=O)[C@H]1O[C@@H](n2cnc3c(N)nc(NCCc4ccc(CCC(=O)O)cc4)nc32)[C@H](O)[C@H]1O", "active"),
    ("O=C(Nc1ncc(SCCN2CCCC2)s1)[C@]1(c2ccc(S(=O)(=O)C3CC3)cc2)C[C@@H]1C1CCCCC1", "active"),
    ("CC(C)n1c(C=C[C@H](O)C[C@H](O)CC(=O)O)c(-c2ccc(F)cc2)c2ccccc21", "active"),
    ("NS(=O)(=O)c1ccc(Nc2nc(OCC3CCCCC3)c3[nH]cnc3n2)cc1", "active"),
    ("NS(=O)(=O)c1cc(Cl)c(Cl)c(S(N)(=O)=O)c1", "inactive"),
    ("Cc1cc2nc3c(=O)[nH]c(=O)nc-3n(CC(O)C(O)C(O)CO)c2cc1C (stereo not given)", "inactive"),
    ("Cc1nn(Cc2ccccc2Cl)c(C)c1CN(C)CC(O)COc1ccc(Cl)cc1 (stereo not given)", "active"),
    ("CN[C@@H]1[C@@H](O)[C@@H](O[C@@H]2[C@@H](O)[C@H](O[C@H]3O[C@H](CN)[C@@H](O)[C@H](O)[C@@H]3O)[C@@H](N)C[C@@H]2NC(=O)[C@@H](O)CN)OC[C@]1(C)O", "inactive"),
    ("CCCCC(C)(C)[C@H](O)C=C[C@H]1[C@H](O)CC(=O)[C@H]1CC=CCCCC(=O)O", "active"),
]
